- Test system: MDA-MB-468 breast
- Protocol details: NCI-60 one-dose screen, 48 h (100 = growth as untreated, 0 = no growth, -100 = all killed)
- Test context: 10 µM
This is part of a sample that, as a whole, favours compounds with a hit. Of some 83,000 tested, about 20% had one in any assay.
Would you mind telling me the reported growth of each entry?
The figure you give is taken to be in %; do not add the unit.

Lab book: growth of Cc1ccc(-c2nc3ccc(C(=O)N=Nc4c(O)[nH]c5ccc(Cl)cc45)cc3[nH]2)cc1 noted as -75

Field growth (entry Cc1cccc2cc(-c3cc(-c4ccccc4)nc(=O)[nH]3)c(Cl)nc12 ) reads 83.6

Form field growth, entry COc1ccc(C(=O)CSc2nnc(-c3c[nH]c4ccccc34)n2-c2ccccc2)cc1 : 59.8

The reported value for Cc1ccc2nc3c(nc2c1)c1cc(I)ccc1n3CCN(C)C in terms of growth is 5.08

response.value for CC(=O)NS(=O)(=O)c1ccc(NC(=O)CSC2=NC(c3ccccc3)C(C(C)=O)=C(C)N2)cc1 (stereo not given) (field: growth) = 110

----------
- Tested on: OVCAR-3 ovarian
- Protocol details: NCI-60 one-dose screen, 48 h
- Test context: 10 µM
The panel holds about 83,000 compounds, 20% with a hit somewhere; the sample as a whole holds those more often. The source made the active and inactive calls. How the source made its calls: active means growth percent below 10; inactive means the rest.
Pick one and only one: true (active), false (inactive)

In: // param item: O/N=C(\CSc1nnc(-c2c[nH]c3ccccc23)n1-c1ccccc1)c1ccc(Cl)cc1 ; yields the recorded call
Out: false

In: Which outcome did this test record for the molecule CC(=O)NNc1ccc2nnc(-c3ccc(Br)cc3)n2n1 ?
Out: false

In: // outcome(item) with item = O=C(N/N=C/c1ccc(-c2cccc([N+](=O)[O-])c2)o1)c1[nH]c2ccc(Br)cc2c1-c1ccccc1
Out: true

In: Tell me the recorded outcome of this test for O=C(CNc1nc(-c2ccccc2)cs1)Nc1ccc(Cl)cc1[N+](=O)[O-] .
Out: true

In: Assay result, entry Cc1ccc(C(C)C)cc1NC(=O)c1ccccc1O — outcome?
Out: false

In: Query: recorded result category for C=C1CCC2C3(C)COC(c4cccc(F)c4)OC3CCC2(C)C1CC(O)C1=CCOC1=O (configuration not stated) in this test
Out: false

In: # outcome recorded in this test, key = C=C[C@@]12CN3CC[C@]1(O)[C@@](C(=O)OC)(CO2)c1[nH]c2ccccc2c1C3
Out: false

----------
- System: NCI-H23 lung
- Protocol details: NCI-60 one-dose screen, 48 h (100 = growth as untreated, 0 = no growth, -100 = all killed)
- Test context: 10 µM
Compounds without any hit were thinned out: in the full panel of roughly 83,000, 20% have a hit.
Tick Yes if growth is 60% or greater. Tick No if growth is less than 60%.

In: Is growth at least 60%? Consider COc1ccc(-c2c(N)c(=O)n(C)c3ccccc23)cc1
Out: Yes

In: Is growth at least 60%? Consider Cc1noc2c(Cc3ccc([N+](=O)[O-])cc3)nn(CC(=O)N/N=C/c3ccc(Cl)cc3)c(=O)c12
Out: No

In: Given the entry CCCCSc1nc(Nc2ccc(/C(C)=N/NC(N)=S)cc2)c(C#N)c(-c2ccc(F)cc2)n1 , answer whether its growth meets or surpasses 60%.
Out: No

In: Has CN(C)c1nc(NCCNS(=O)(=O)c2ccc(C(=O)/C=C/c3ccccc3)cc2)nc(Nc2ccc(F)cc2)n1 a recorded growth greater than or equal to 60%?
Out: No

In: Is reported growth greater than or equal to 60% here: CC1(C)[C@@H](NCO)CC[C@]2(C)[C@H]3C(=O)C=C4[C@@H]5C[C@](C)(CO)CC[C@]5(C)CC[C@@]4(C)[C@]3(C)CC[C@@H]12
Out: Yes

In: I'd appreciate it if you could say whether CN(CCF)c1ccc(/C=C/C(=O)c2ccc(N)cc2O)cc1 has growth at least equal to 60%.
Out: Yes

In: Is the recorded value of growth equal to or greater than 60% for this compound? O=C(c1ccc(O)cc1)C1[C@H](c2ccccc2Br)[C@@H](c2ccccc2)NC12C(=O)Nc1ccc(Cl)cc12 (stereo partly drawn)
Out: No

In: hey, is growth for this one >= 60%? COc1ccccc1C(=O)NNC(=O)CSc1nc2c(c(=O)[nH]1)CCCC2
Out: Yes

In: Textbook exercise: given the entry O=C1NC(=NC23CC4CC(CC(C4)C2)C3)N/C1=C\c1ccc2ncoc2c1 , state whether its growth is greater than or equal to 60%.
Out: No

In: Say whether COc1cc2c3c(n(CCCN4CCOCC4)c(=O)c2cc1OC)-c1nc2c(cc1C3=O)OCO2 shows growth of 60% or more.
Out: No

In: Reported growth at or above 60%? COc1cc(/C=C/C(=O)c2ccc(C(F)(F)F)cc2)ccc1Oc1nc(Nc2ccc(F)cc2)nc(N(C)C)n1
Out: Yes

In: Could you tell me if the measured growth of O=c1nc(-c2ccccc2)cc(-c2cc3ccccc3nc2Cl)[nH]1 reaches 60% or more?
Out: No

In: Is growth at least 60%? Consider Clc1ccc(/C=N/Nc2ncnc3sc4c(c23)CCN(Cc2ccccc2)C4)cc1
Out: No

In: Could you tell me if the measured growth of CC1=C2C(=C[C@@](C)(CO)[C@@H]2O)/C(=N\N)[C@](C)(O)C12CC2 reaches 60% or more?
Out: No

In: Identify whether the reported growth of the following compound is 60% or greater: N#Cc1c(Cl)nc(SCc2ccc(F)cc2)nc1-c1ccc(F)cc1
Out: Yes

In: For this compound, is measured growth 60% or higher? CC(=O)c1ccc(Nc2nc(SCCC(C)C)nc(-c3ccc(F)cc3)c2C#N)cc1
Out: No

In: Decide: is the reported value of growth for O=C(CNc1nc(-c2ccccc2)cs1)Nc1ccc([N+](=O)[O-])cc1 equal to or greater than 60%?
Out: No

----------
- System: COLO 205 colon
- Protocol details: NCI-60 one-dose screen, 48 h
- Test context: 10 µM
This is part of a sample that, as a whole, favours compounds with a hit. Of some 83,000 tested, about 20% had one in any assay. Active and inactive are the calls of the source. How the source made its calls: active means growth percent below 10; inactive means the rest.
Choose the fitting class; nothing outside True (active), False (inactive) is accepted.

In: Lab log entry: CCCCCCCCCCCCCCCCCCCC(=O)NCCc1c[nH]c2ccc(O)cc12 — outcome as called in the assay?
Out: False

In: How was CC(=O)Nc1ccc(-c2cn(-c3cccc(C(=O)Nc4cc(C(F)(F)F)cc(C(F)(F)F)c4)c3)nn2)cn1 classified in this test?
Out: True

In: Hello, I am checking results. What call was entered for COc1ccsc1/C=N/NC(=O)c1[nH]c2ccc(Br)cc2c1-c1ccccc1 ?
Out: True

In: Hi, do you know how O=C(CS(=O)(=O)c1oc(-c2ccc(Cl)cc2)nc1S(=O)(=O)c1ccc(Cl)cc1)N1CCOCC1 came out in this test?
Out: False

In: Test call, this compound: COc1ccc2nc(Nc3cccc(NC(=O)c4ccc(CN5CCN(C)CC5)c(C(F)(F)F)c4)c3)ccc2c1
Out: True

In: Dear all, I need the recorded test outcome for CN1C(=O)N(C)C2SC(N/N=C/c3ccccc3F)=NC21 (stereo not drawn) , thank you.
Out: False

In: So what was the verdict on COc1ccccc1[C@H]1C(C(=O)c2ccc(Cl)cc2)C2(N[C@@H]1c1ccccc1)C(=O)Nc1ccc(Cl)cc12 (stereo partly drawn) in this test?
Out: True

In: Recorded test outcome, item O=C(CSc1nnc(-c2c[nH]c3ccccc23)n1-c1ccccc1)c1ccccc1
Out: False

In: Could you please tell me the result logged for O=c1[nH]n(C(=S)N/N=C/c2ccc(F)cc2)c(=O)c2ccccc12 in this assay?
Out: False

In: Status in this test for CC(=O)Nc1ccc(-c2cn(-c3cccc(C(=O)Nc4ccc(Cl)c(C(F)(F)F)c4)c3)nn2)cn1 ?
Out: True

In: What was the test verdict on COc1cc(-c2nc3cc(Cl)c(Cl)cc3[nH]2)ccc1OCc1nnc(-c2ccc(Br)cc2)o1 ?
Out: False

In: What outcome does the record of this test show for COc1ccc(-c2cc(C(=O)N=Nc3c(O)[nH]c4ccc(Br)cc34)c3ccccc3n2)cc1 ?
Out: False

In: Could you kindly confirm the outcome this assay logged for O=C(CSc1nnc(-c2c[nH]c3ccccc23)n1-c1ccccc1)Nc1ccc(C(=O)/C=C/c2ccccc2Cl)cc1 ?
Out: False

In: Call for entry O=c1cc(-c2ccccc2)oc2cc(OCCCNCc3ccccc3)cc(O)c12 :
Out: True

In: Per the records of this test, what outcome belongs to O=C(NO)c1ccc(CNc2nc(-c3ccccc3)c3ccccc3n2)cc1 ?
Out: True

In: Lab log entry: CCOP(=O)(OCC)O[C@H]1CCC(=O)[C@@H]2[C@H]1[C@H]1C[C@@H]3[C@@]4(C)CCCC(C)(C(=O)OC)[C@@H]4CC[C@@]23C=C1C(C)C (stereo partly drawn) — outcome as called in the assay?
Out: False

In: State the result this test recorded for O=C1NC(=NC2CCCCCC2)N/C1=C\c1ccc2ncoc2c1 .
Out: True

In: Hi, do you know how CN(C(=O)c1ccc(C(F)(F)F)cc1C(F)(F)F)c1sc2c(c1C#N)CCC(=O)C2 came out in this test?
Out: False

In: # outcome recorded in this test, key = CN1CCCN(Cc2ccc(C(=O)Nc3cccc(Nc4ccc5c(O)cccc5n4)c3)cc2C(F)(F)F)CC1
Out: True

In: Each compound tested received a call. Report the one for CNCc1cccc2c1OCCCCCC[C@@](C)(O)CC1(CC1)S(=O)(=O)c1ccc(cc1)-c1cnc(N)c(n1)C(=O)N2 .
Out: True

In: Each compound tested received a call. Report the one for O=C(c1ccc(Cl)cc1)C1[C@H](c2ccccc2Br)[C@@H](c2ccccc2)NC12C(=O)Nc1ccccc12 (stereo partly drawn) .
Out: True

In: Write down the call the test reported for this compound. Item: O=C(Nc1cccc(C(F)(F)F)c1)c1cncc(C#Cc2cnc3cccnn23)c1
Out: False

In: Given COc1cc2c(cc1OC)/C(=C\c1sc(Nc3ccc(O)cc3)nc1O)C(C(=O)O)=N2 , state the outcome it received in this test.
Out: True
